All figures here come from PubChem BioAssay.

# viability per record follows
Assay: SK-BR-3 cell growth inhibitors, pilot screen, 24 h, human (AID 572);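 further: compound exposure lasted between 18 and 24 h rather than exactly 24 h; 100% = carrier-treated control wells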
Conditions: SK-BR-3 viability, CellTiter-Glo luminescence, at 10 µM, stronger effect = lower value
Answer with a number only, understood to be in %.

compound	viability / %
Cc1cc2ccccc2c(=O)n1CC(=O)N(C)c1ccc(F)cc1	102
CCC(=O)Oc1ccc(C(CC)C(CC)c2ccc(OC(=O)CC)cc2)cc1 (centres undefined)	112
Cc1cc(C)nc(SCc2nnc(SCC(=O)Nc3ncc(C)s3)n2Cc2ccco2)n1	91
CNC(=O)CSc1nc2c(c(=O)n(C)c(=O)n2C)n1Cc1ccc(C)cc1	100
CN(CCc1ccccn1)c1ncnc2[nH]ncc12	102
O=C(Oc1cc2oc(=O)c3c(c2cc1Cl)CCCC3)c1ccco1	82

Look up viability for this compound: CCCCCC1CC(CC#CCN2CCOCC2)C(=O)O1 (centres undefined)
86

Which viability value belongs to COc1ccccc1N(C)S(=O)(=O)c1ccc(C(=O)NC2=NCCS2)cc1 ?
104

Looking for the measured viability of COc1ccc(CCNS(=O)(=O)c2ccc3c(c2)CCN3C(=O)CCC(=O)O)cc1OC , can you help?
104

Which viability value belongs to CCOc1cc2[nH]c(=O)n(CCC(=O)NCCc3ccc(OC)c(OC)c3)c(=O)c2cc1OCC ?
103

Requested field: viability. Item: Cc1ccc2nc(C(F)(F)F)c(C#N)c(N)c2c1
50

Fill blank: measured viability of the compound CN1CCC(=C2c3ccccc3C=Cc3ccccc32)CC1 is ____.
100

# query: viability of entry Cn1ncc2c(Nc3ccccc3Br)ncnc21
109

// query viability value for entry CCCCc1ccc(NC(=O)N[C@H](C(=O)O)C(C)C)cc1
119

Give the measured viability of CCOC(=O)C1CCN(C(=O)CCCCn2c(=O)[nH]c3ccccc3c2=O)CC1 .
90

Look at this compound and give its reported viability. COc1ccc(C2C(C(C)=O)=C(O)C(=O)N2C)c(OC)c1 (centres undefined)
102

Param item = CC[C@H]1OC(=O)C[C@@H](O)[C@H](C)[C@@H](O[C@@H]2O[C@H](C)C[C@H](N(C)C)[C@H]2O)[C@@H](CC=O)C[C@@H](C)C(=O)C=C[C@]2(C)O[C@H]2[C@@H]1C ; retrieve measured viability.
162

----------
Experiment: reducers of endogenous Her2 protein level, primary screen, SKBR3 breast tumor cells, AlphaScreen, ATP viability (AID 461);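 further: percent of carrier control wells set as 100% viability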
Settings: 18-24 h, measured here: SKBR3 viability, ATP luminescence, at 10 µM
experimental_readout: viability (%)
Give the value in % but do not write % after it.

> print(dat)
                               molecule  unit.tag  recorded.value
1  CC(C)C(=O)Nc1ccc(C(=O)NCc2cccnc2)cc1         %             107

Fill in the blank: the reported viability of CC1CN(c2nc3ccccc3nc2C(C#N)C(=O)OC2CCCCC2)CC(C)O1 (centres undefined) is ____.
94

Request the reported viability associated with O=C(COc1ccc2c(c1)OCO2)NC12CC3CC(CC(C3)C1)C2
89.5

Consider the molecule Cc1cc(C)c2cc(CN(CC3CCCO3)C(=O)NC3CCCCC3)c(=O)[nH]c2c1 (centres undefined) and give its measured viability.
78.5

For CCn1c(CSc2ncccn2)nnc1SCC(=O)N1c2ccccc2CC1C (centres undefined) , what is its reported viability?
96

What does the record list as viability for Cc1cc(C(=O)Cn2cncn2)c(C)n1CCc1ccc(F)cc1 ?
64

Please report the recorded viability for COc1ccc(C(C(C(=O)c2cccs2)N2CCOCC2)N2CCOCC2)cc1OC (centres undefined) .
102

What does the record list as viability for CCC(C)NC(=O)CSC1=Nc2ccccc2C2=NC(CC(=O)NCc3ccccc3)C(=O)N12 (centres undefined) ?
96.5

What does the record list as viability for Cc1cc(C)nc(N2CCC(C(=O)Nc3ccc4c(c3)CCC4)CC2)n1 ?
81.5

Give the measured viability of Fc1cccc2sc(Nc3nnc(-c4ccco4)o3)nc12 .
109

----------
Experiment: 384-well plate pilot, post-Golgi transport modulator project, inhibition of yeast transport mutant growth (AID 636)
Details: absorbance 615 nm, about 18 h, stronger effect = higher value
experimental_readout: inhibition (%)
Report the figure in % without appending any unit label.

Study these solved cases before continuing.
> print(dat)
                                    molecule  recorded.value
 1  CCOC(=O)CSc1nnc(CNC(=O)c2ccc(S(=O)(=O)N3CCCC3)cc2)n1C            -2.6
 2  COc1ccc(-c2nn3c(-c4cccc(C)c4)nnc3s2)cc1OC            -0.4
 3     O=c1c2[nH]c3ccc(Cl)cc3c2ncn1Cc1ccccn1           -3.33
 4  CC1CN(C(=O)CSc2nnc(-c3ccc(Cl)cc3)n2C)CC(C)O1 (stereo not drawn)           -6.08
 5  O=C1NC2c3ccccc3C(=O)N2c2c1cnn2-c1ccccc1 (stereo not drawn)            0.68
 6  COC(=O)c1cccc(NC(=O)CSc2nnc(COc3ccccc3)n2C)c1           -4.27
 7  OC(CCCN1CCC(O)(c2ccc(Cl)cc2)CC1)c1ccc(F)cc1 (stereo not drawn)            2.47
 8               C(#Cc1ccccc1)Cn1nnc2ccccc21             0.9
 9  Cc1ccc2c(c1C)NC(=O)C2(O)CC(=O)c1ccc2c(c1)OCO2 (stereo not drawn)            -1.1
10  C(=C\c1ccccc1)/CSc1nnc(-c2ccccn2)n1Cc1ccco1           -6.53

Value lookup for inhibition; key = CN1CCN(C2=Nc3cc(Cl)ccc3Nc3ccccc32)CC1
1.82

Recorded inhibition for O=c1[nH]c(NCc2ccccc2)nc2c1CCCC2 , please?
-4.19

Please give the measured inhibition for this molecule: O=C(NCc1ccco1)c1c2c(nc3ccccc13)CCC2
-6.4

Using the record for CC(=O)OCC(=O)[C@@]12OC(C)(C)O[C@@H]1C[C@H]1[C@@H]3C[C@H](F)C4=CC(=O)C=C[C@]4(C)[C@@]3(F)[C@@H](O)C[C@@]12C , report its inhibition.
0.65

----------
Experiment: growth inhibitors of H69AR lung tumor, primary screen, human, duplicate replicates (AID 580);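 further: 100% = mean luminescence of untreated wells and 0% = no signal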
Conditions: H69AR lung tumor cells viability, ATP luminescence, 72 h; at 10 µM; stronger effect = lower value
experimental_readout: viability (%)
Express your answer in %, writing the number without its unit.

Example compounds with recorded viability:
> print(dat)
                                   compound  experimental.readout  recorded.value
1  Cc1cc(C)nc(-n2nc(C)cc2NC(=O)c2ccc(Br)o2)n1             viability            71.9
2  O=C(CSc1nc(-c2ccco2)cc(C(F)(F)F)n1)N1CCCc2ccccc21             viability              84
3                   CC(C)Cc1n[nH]c(=O)[nH]1             viability            98.4

Please give the measured viability for this compound: COc1cc(C(=O)Nc2nc(-c3cccs3)cs2)cc(OC)c1OC
22.9

----------
Assay: reversal of MRP1-mediated doxorubicin resistance, pilot screen, H69AR cells, doxorubicin co-treatment (AID 601)
Settings: H69AR cells + 2 uM doxorubicin, CellTiter-Glo, 72 h; measured here: viability with 2 uM doxorubicin; at 10 µM; stronger effect = lower value
experimental_readout: viability (%)
The reply should be a number in %, with the unit left off.

Which viability value belongs to O=C(CSc1ccc(-c2ccccc2)nn1)N1CCOCC1 ?
82

For CCN(CC)c1nc2cc(OC)ccc2cc1C#N , what is its reported viability?
82.3

Sample COc1cccc(NC(=O)N2CCCC2C(=O)Nc2ccc3c(c2)OCO3)c1 (configuration not stated) — what was its viability?
80.2

Form field: reported viability of Cc1nc(SCC(=O)c2c[nH]c3ccccc23)n[nH]1
81.4

----------
Assay: reversal of MRP1-mediated doxorubicin resistance, pilot screen, H69AR cells, doxorubicin co-treatment (AID 601)
Settings: H69AR cells + 2 uM doxorubicin, CellTiter-Glo, 72 h; measured here: viability with 2 uM doxorubicin; at 10 µM; stronger effect = lower value
Would you mind classing the entries by viability? Ranges: bucket 1 (below 80%), bucket 2 (80% to below 90%), bucket 3 (90% or more)

> print(dat)
                                   compound  class.name
1  COc1cc2nc(N3CCN(C(=O)C4COc5ccccc5O4)CC3)nc(N)c2cc1OC (configuration not stated)    bucket 1
2  C=CCn1c(=S)[nH]c2nc3c(cc2c1=O)COC(C)(C)C3    bucket 1
3                Nc1nc(-c2ccc(Br)s2)c(Br)s1    bucket 2

Using the reported viability, which band applies to CCCN(CCC)C(=O)C(CCC(=O)O)NC(=O)c1ccccc1 (configuration not stated) ?
bucket 3

Each compound maps to one class by viability. Which class for C[C@]12CC[C@@H]3c4ccc(O)cc4CC[C@H]3[C@@H]1CCC2=O ?
bucket 2

Exam item: assign CC(OC(=O)c1cccc(NS(C)(=O)=O)c1)C(=O)Nc1ccc(N2CCOCC2)cc1 (configuration not stated) to the correct category.
bucket 2

Dear colleague, I would appreciate it if you could identify the bin for Cc1ccc(CNC(=O)C2CCN(S(=O)(=O)c3cccs3)CC2)o1 and reply at your convenience.
bucket 1

Which bin should I file CC(=O)OCC(=O)[C@@]1(O)CC[C@H]2[C@@H]3CCC4=CC(=O)CC[C@]4(C)[C@H]3C(=O)C[C@@]21C under?
bucket 3
